System: Plasmodium berghei
Test: Screen against P. berghei liver stage (PbLuc), transformed with Luciferase, at 10uM
Assay type: functional, HepG2
Conditions: tested at 10 uM
The whole screen tested about 69,000 compounds, of which about 8,600 (12%) showed an effect of 50% or more. Many of the other results were omitted from the sample, so strong results are more common in it than they were.
Reported INHIBITION by item:

[
  {
    "molecule": "CN(C)C(=O)C1CCCN1c1ccnc2ccsc12 (centres undefined)",
    "INHIBITION [%]": 1.75
  },
  {
    "molecule": "Cc1noc(C)c1CN1C[C@H](C)[C@]2(CCN(Cc3cccnc3)C2=O)C1",
    "INHIBITION [%]": 13.7
  },
  {
    "molecule": "COCC(=O)N1C[C@H]2CNC[C@@]2(C(=O)NCc2nc(C)cc(C)n2)C1",
    "INHIBITION [%]": 1.45
  },
  {
    "molecule": "COCC(=O)N1C[C@H]2CNC[C@@]2(C(=O)NCc2cc(C)n[nH]2)C1",
    "INHIBITION [%]": 59.5
  }
]

###

System: Plasmodium berghei
Experiment: Screen against P. berghei liver stage (PbLuc), transformed with Luciferase, at 10uM
Type: functional, HepG2
Conditions: tested at 10 uM
In all, about 69,000 compounds went through this assay and about 8,600 (12%) showed an effect of 50% or more. The sample holds strong results, similar compounds and a random draw of the others, so the mix is not that of the screen.

[
  {
    "molecule": "CS(=O)(=O)N[C@@H]1CN(C(=O)c2ccccn2)C[C@@H]2CCCO[C@@H]21",
    "INHIBITION": "34.6%"
  },
  {
    "molecule": "Cc1cccc(CC(=O)NC2CCN(C(=O)NC(C)(C)C)CC2)c1",
    "INHIBITION": "-38.4%"
  },
  {
    "molecule": "CCc1ccc(C(=O)N2CCN(c3nc(C)cc(OC)n3)CC2)o1",
    "INHIBITION": "19.2%"
  },
  {
    "molecule": "COc1ccc(NC(=O)C2CC2)cc1OCc1cccnc1",
    "INHIBITION": "34.1%"
  },
  {
    "molecule": "CSc1ccccc1C(=O)NCCCN1CCc2ccccc2C1",
    "INHIBITION": "5.03%"
  },
  {
    "molecule": "CC(C)n1ccnc1CN1CCCN(C(=O)CC2CCCO2)CC1 (configuration not stated)",
    "INHIBITION": "-32%"
  },
  {
    "molecule": "CC1CCN(C(=O)NCCc2cc(F)ccc2F)C1 (configuration not stated)",
    "INHIBITION": "-21.2%"
  },
  {
    "molecule": "Cc1c(Cl)c(C(F)(F)F)nn1C(C)C(=O)NN1CCN(C)CC1 (configuration not stated)",
    "INHIBITION": "35.7%"
  },
  {
    "molecule": "CCS(=O)(=O)Cc1nc(-c2cnn3c(C)cc(C)nc23)no1",
    "INHIBITION": "70.5%"
  },
  {
    "molecule": "CC(C(=O)NN1CCOCC1)n1nc(C(F)(F)F)c(Cl)c1C1CC1 (configuration not stated)",
    "INHIBITION": "74.1%"
  },
  {
    "molecule": "COCCc1nc(-c2cnn3c(C)cc(C)nc23)no1",
    "INHIBITION": "34.6%"
  },
  {
    "molecule": "CCC(CNC(=O)c1ccccc1Br)N1CCc2ccccc2C1 (configuration not stated)",
    "INHIBITION": "56.4%"
  },
  {
    "molecule": "Cc1nc(CN(C)C(=O)c2ccc(Cn3cnnn3)cc2)cs1",
    "INHIBITION": "16.5%"
  },
  {
    "molecule": "O=C(c1c[nH]cn1)N1CCOCC2(C1)CN(c1ccccc1)C(=O)CO2 (configuration not stated)",
    "INHIBITION": "8.52%"
  },
  {
    "molecule": "O=C1CCC2(CCC(NCc3ccsc3)CC2)N1Cc1ccccc1 (configuration not stated)",
    "INHIBITION": "29.7%"
  },
  {
    "molecule": "CC(C(=O)NC1CCN(C)CC1)n1nc(C(F)(F)F)c(Cl)c1C1CC1 (configuration not stated)",
    "INHIBITION": "82.4%"
  },
  {
    "molecule": "Cc1nn(C)c(Cl)c1C1CCCN1C(=O)c1ccc(O)nc1 (configuration not stated)",
    "INHIBITION": "48.1%"
  },
  {
    "molecule": "CC(C)c1ccc(CN2CCCC3(CC2)CN(C)C(=O)O3)cc1 (configuration not stated)",
    "INHIBITION": "-58.7%"
  },
  {
    "molecule": "CCc1nc(Cn2c(=O)c3c(C(F)(F)F)cc(C)nc3n2C)no1",
    "INHIBITION": "10.5%"
  },
  {
    "molecule": "CN(C)C(=O)[C@@H]1CCO[C@@H]2CCN(CCOCc3ccccc3)C[C@H]21",
    "INHIBITION": "43.1%"
  },
  {
    "molecule": "CC(=O)Nc1nc(C(=O)N2CCCC2c2noc(C3CC3)n2)cs1 (configuration not stated)",
    "INHIBITION": "2.3%"
  },
  {
    "molecule": "CCNC(=O)N1CCC(NC(=O)NCCc2cc3ccccc3o2)C1 (configuration not stated)",
    "INHIBITION": "-43.8%"
  },
  {
    "molecule": "Cc1ocnc1CNC(=O)Nc1ccc(N2CCOC(C)C2)cc1 (configuration not stated)",
    "INHIBITION": "25.8%"
  },
  {
    "molecule": "CCN(Cc1ccncc1)CC1(O)CCN(C(=O)c2cccc(C)c2)C1 (configuration not stated)",
    "INHIBITION": "-9.32%"
  },
  {
    "molecule": "O=C(Cn1nc(C(F)(F)F)c(Cl)c1C1CC1)NN1CCOCC1",
    "INHIBITION": "-3.11%"
  },
  {
    "molecule": "CCC(CNC(=O)c1cc(OC)ccc1Br)N1CCc2ccccc2C1 (configuration not stated)",
    "INHIBITION": "33.5%"
  },
  {
    "molecule": "CSCC[C@@H]1CN2CCC[C@H]2CN1Cc1coc2ccc(Cl)cc2c1=O",
    "INHIBITION": "7.11%"
  }
]

###

System: Plasmodium berghei
Test: Screen against P. berghei liver stage (PbLuc), transformed with Luciferase, at 10uM
Type: functional, HepG2
Conditions: tested at 10 uM
Among all 69,000 compounds or so, about 8,600 (12%) showed an effect of 50% or more. The list comes from a sample in which strong results are over-represented; it also holds close analogues and randomly drawn compounds.

[
  {
    "molecule": "CCC(c1nc(C(C)C)nn1-c1ccccn1)n1cccn1 (stereo not drawn)",
    "output.unit": "%",
    "INHIBITION": 38.8
  },
  {
    "molecule": "CCC(c1nc(C(C)C)nn1-c1ccncc1C)n1cccn1 (stereo not drawn)",
    "output.unit": "%",
    "INHIBITION": 57.2
  },
  {
    "molecule": "Cc1[nH]c2ccccc2c1-c1ccnc(NC[C@H](O)CO)n1",
    "output.unit": "%",
    "INHIBITION": 27.8
  }
]

###

Test system: Plasmodium berghei
Experiment: Screen against P. berghei liver stage (PbLuc), transformed with Luciferase, at 10uM
Type: functional, HepG2
Conditions: tested at 10 uM
The whole screen tested about 69,000 compounds, of which about 8,600 (12%) showed an effect of 50% or more. The list comes from a sample in which strong results are over-represented; it also holds close analogues and randomly drawn compounds.

[
  {
    "compound": "Cc1cccc(CSc2ncc(Cl)c(C(=O)O)n2)c1",
    "INHIBITION / %": 12.1
  },
  {
    "compound": "COc1cccc(CCC(=O)N2CCN(Cc3noc(C)n3)CC2)c1",
    "INHIBITION / %": -30.7
  },
  {
    "compound": "Cn1c2ncccc2c(=O)n1CC(=O)NCCC1=CCCCC1",
    "INHIBITION / %": 66.8
  },
  {
    "compound": "Cc1cc(C(=O)N2CCOC(c3nc(C(C)C)n[nH]3)C2)no1 (stereo not given)",
    "INHIBITION / %": 25.1
  },
  {
    "compound": "COCCN1C(=O)[C@@H]2CC[C@H]1CN(S(=O)(=O)c1cccc(Cl)c1)C2",
    "INHIBITION / %": 32.2
  },
  {
    "compound": "Cc1nc(CN2CCN(C(=O)CCc3cccc(Cl)c3)CC2)no1",
    "INHIBITION / %": 75.2
  },
  {
    "compound": "COCCN1C[C@@H]2CC[C@H]1CN(Cc1nc3ccccc3n1C)C2",
    "INHIBITION / %": -35
  },
  {
    "compound": "Cc1nc(CN2CCN(C(=O)CC(C)(C)c3ccccc3)CC2)no1",
    "INHIBITION / %": -73.6
  },
  {
    "compound": "CC(C)c1[nH]c2ncccc2c1CN1CCN(S(=O)(=O)N(C)C)CC1",
    "INHIBITION / %": -33.6
  },
  {
    "compound": "COCCc1noc(CN2CCCC2c2noc(C)n2)n1 (stereo not given)",
    "INHIBITION / %": -5.32
  }
]
